Tested on: HS 578T breast
ASSAY NAME: NCI-60 one-dose screen, 48 h (100 = growth as untreated, 0 = no growth, -100 = all killed)
CONDITION DETAILS: 10 µM unless noted
This is part of a sample that, as a whole, favours compounds with a hit. Of some 83,000 tested, about 20% had one in any assay. Activity calls are given as the source filed them. The calls were made as follows: active = growth percent below 10; inactive = the rest.
VALUE TYPE: growth

QUERY: Requested field: growth. Item: CC1=C(CN)C2=C(C)C3(CC3)[C@@](C)(O)C(=O)C2=C1
RESULT: 86% (inactive)

QUERY: Data request, read-out growth, for CCCCCCCC(=O)OCC(=O)[C@]1(O)Cc2c(O)c3c(c(O)c2[C@@H](OC2CC(N)C(O)C(C)O2)C1)C(=O)c1c(OC)cccc1C3=O (some centres undefined)
RESULT: -59.3% (active)

QUERY: // returns reported growth for input O=C(CC1(O)C(=O)N(Cc2ccccc2)c2ccc(Br)cc21)c1ccc(C(=O)NCC2CCC3(CC2)OOC2(CCCCC2)OO3)cc1 (centres undefined)
RESULT: 22.6% (inactive)

QUERY: Which growth reading was recorded for the compound C/C(Cc1ccc(Cl)cc1)=C(\c1ccc(OCCN2CCOCC2)cc1)c1ccc(OC(=O)Cc2ccccc2)cc1 ?
RESULT: 99.1% (inactive)

Hey, just so you know, these numbers are from PubChem BioAssay (NCI).
